test system: Pseudomonas aeruginosa; experiment: Antimicrobial activity against Pseudomonas aeruginosa isolate PA399 expressing VIM-2 beta-lactamase; format: functional
MIC for assorted compounds
property label: MIC

INSERT INTO results (compound, assay_target, property_label, result) VALUES
  ('CO/N=C(\C(=O)N[C@@H]1C(=O)N2C(C(=O)[O-])=C(C[N+]3(C)CCCC3)CS[C@H]12)c1csc(N)n1 [CEFEPIME]', 'Pseudomonas aeruginosa', 'MIC', '≥ 64 µg/mL'),
  ('O=C(O)c1cn(C2CC2)c2cc(N3CCNCC3)c(F)cc2c1=O [CIPROFLOXACIN]', 'Pseudomonas aeruginosa', 'MIC', '≥ 4 µg/mL'),
  ('C[C@@H](O)[C@H]1C(=O)N2C(C(=O)O)=C(S[C@@H]3CN[C@H](C(=O)N(C)C)C3)[C@H](C)[C@H]12 [MEROPENEM]', 'Pseudomonas aeruginosa', 'MIC', '≥ 16 µg/mL'),
  ('C[C@H]1[C@H](NC(=O)/C(=N\OC(C)(C)C(=O)O)c2csc(N)n2)C(=O)N1S(=O)(=O)O [AZTREONAM]', 'Pseudomonas aeruginosa', 'MIC', '16 µg/mL'),
  ('CCN1CCN(C(=O)N[C@@H](C(=O)N[C@@H]2C(=O)N3[C@@H]2SC(C)(C)[C@@H]3C(=O)O)c2ccccc2)C(=O)C1=O [PIPERACILLIN]', 'Pseudomonas aeruginosa', 'MIC', '≥ 128 µg/mL'),
  ('CC(C)(O/N=C(\C(=O)N[C@@H]1C(=O)N2C(C(=O)[O-])=C(C[n+]3ccccc3)CS[C@H]12)c1csc(N)n1)C(=O)O [CEFTAZIDIME]', 'Pseudomonas aeruginosa', 'MIC', '≥ 64 µg/mL'),
  ('NCC[C@H](O)C(=O)N[C@@H]1C[C@H](N)[C@@H](O[C@H]2O[C@H](CN)[C@@H](O)[C@H](O)[C@H]2O)[C@H](O)[C@H]1O[C@H]1O[C@H](CO)[C@@H](O)[C@H](N)[C@H]1O [AMIKACIN]', 'Pseudomonas aeruginosa', 'MIC', '8 µg/mL'),
  ('NC[C@H]1O[C@H](O[C@H]2[C@H](O)[C@@H](O[C@H]3O[C@H](CO)[C@@H](O)[C@H](N)[C@H]3O)[C@H](N)C[C@@H]2N)[C@H](N)C[C@@H]1O [TOBRAMYCIN]', 'Pseudomonas aeruginosa', 'MIC', '≥ 16 µg/mL'),
  ('C[C@@H](O)[C@H]1C(=O)N2C(C(=O)O)=C(SCCNC=N)C[C@H]12 [IMIPENEM ANHYDROUS]', 'Pseudomonas aeruginosa', 'MIC', '≥ 16 µg/mL');

###

tested on: Pseudomonas aeruginosa; assay: Antimicrobial activity against metallo-beta-lactamase-negative Pseudomonas aeruginosa isolate PA459; type: functional
property label: MIC (µg/mL)

INSERT INTO assay_data (compound, assay_target, property_label, limit_qualifier, numeric_result) VALUES
  ('C[C@H]1[C@H](NC(=O)/C(=N\OC(C)(C)C(=O)O)c2csc(N)n2)C(=O)N1S(=O)(=O)O [AZTREONAM]', 'Pseudomonas aeruginosa', 'MIC', '=', 16),
  ('CCN1CCN(C(=O)N[C@@H](C(=O)N[C@@H]2C(=O)N3[C@@H]2SC(C)(C)[C@@H]3C(=O)O)c2ccccc2)C(=O)C1=O [PIPERACILLIN]', 'Pseudomonas aeruginosa', 'MIC', '≥', 128),
  ('NC[C@H]1O[C@H](O[C@H]2[C@H](O)[C@@H](O[C@H]3O[C@H](CO)[C@@H](O)[C@H](N)[C@H]3O)[C@H](N)C[C@@H]2N)[C@H](N)C[C@@H]1O [TOBRAMYCIN]', 'Pseudomonas aeruginosa', 'MIC', '=', 1),
  ('CO/N=C(\C(=O)N[C@@H]1C(=O)N2C(C(=O)[O-])=C(C[N+]3(C)CCCC3)CS[C@H]12)c1csc(N)n1 [CEFEPIME]', 'Pseudomonas aeruginosa', 'MIC', '=', 8),
  ('CC(C)(O/N=C(\C(=O)N[C@@H]1C(=O)N2C(C(=O)[O-])=C(C[n+]3ccccc3)CS[C@H]12)c1csc(N)n1)C(=O)O [CEFTAZIDIME]', 'Pseudomonas aeruginosa', 'MIC', '=', 32);

###

tested on: Pseudomonas aeruginosa; experiment: Antimicrobial activity against metallo-beta-lactamase-negative Pseudomonas aeruginosa isolate PA483; format: functional
property label: MIC

INSERT INTO measurements (molecule, result) VALUES
  ('CC(C)(O/N=C(\C(=O)N[C@@H]1C(=O)N2C(C(=O)[O-])=C(C[n+]3ccccc3)CS[C@H]12)c1csc(N)n1)C(=O)O', '≥ 64 µg/mL'),
  ('CCN1CCN(C(=O)N[C@@H](C(=O)N[C@@H]2C(=O)N3[C@@H]2SC(C)(C)[C@@H]3C(=O)O)c2ccccc2)C(=O)C1=O', '≥ 128 µg/mL'),
  ('C[C@@H](O)[C@H]1C(=O)N2C(C(=O)O)=C(S[C@@H]3CN[C@H](C(=O)N(C)C)C3)[C@H](C)[C@H]12', '≥ 16 µg/mL'),
  ('C[C@@H](O)[C@H]1C(=O)N2C(C(=O)O)=C(SCCNC=N)C[C@H]12 [IMIPENEM ANHYDROUS]', '≥ 16 µg/mL');
